Test system: extROQ (Roquin-1 extended ROQ domain) (murine)
Sequence: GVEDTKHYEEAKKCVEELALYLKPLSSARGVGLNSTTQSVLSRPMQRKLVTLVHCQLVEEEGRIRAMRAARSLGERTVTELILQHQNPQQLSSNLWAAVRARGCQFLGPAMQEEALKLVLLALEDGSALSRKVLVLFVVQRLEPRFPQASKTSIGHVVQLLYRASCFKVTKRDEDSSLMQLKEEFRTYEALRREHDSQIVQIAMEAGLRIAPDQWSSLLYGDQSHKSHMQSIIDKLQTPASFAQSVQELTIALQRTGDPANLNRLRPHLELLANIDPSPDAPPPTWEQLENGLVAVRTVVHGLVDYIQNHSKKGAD
Assay details: optical tweezers (kinetics, koff/kon)
Reported conditions: low-salt buffer; zero force; Protein/RNA buffer 150 mM NaCl, 50 mM Tris pH 7.0, 1 mM TCEP; OT in low-salt near-physiological buffer (composition not in material); EMSA 3 nM RNA, 0-20 uM …
Value kind: pKd
Just the number, please; pKd means minus log10 of the concentration in mol/L.

Prompt line: For the sequence GGCAGGGCUGACGUAGUUGGAGUGGUGCGGGAGGGGCUUUCCUAUGUAUGCUAUGCAUACUACAGUGAGGGCAGAAUUCAGGUG [Ox40 CDE, optical tweezers construct] , give its reported pKd.
Response line: 8.70
